The measurements presented in this section are drawn from ChEMBL document CHEMBL1142438.

Molecular target: Geranylgeranyl pyrophosphate synthase (Homo sapiens) (UniProt O95749)
Sequence (whole entry): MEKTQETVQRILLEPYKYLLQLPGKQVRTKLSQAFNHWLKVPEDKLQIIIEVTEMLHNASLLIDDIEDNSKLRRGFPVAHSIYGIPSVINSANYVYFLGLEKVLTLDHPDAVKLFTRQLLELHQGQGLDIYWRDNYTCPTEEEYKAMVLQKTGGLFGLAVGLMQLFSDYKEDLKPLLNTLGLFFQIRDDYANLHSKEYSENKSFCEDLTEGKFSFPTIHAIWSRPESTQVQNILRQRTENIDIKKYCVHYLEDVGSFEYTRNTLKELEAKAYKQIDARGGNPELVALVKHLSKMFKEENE
Assay: Inhibition of human recombinant GGDPS expressed in BL21 gold bacteria at 10 uM relative to control
Parameters: scale not given: the % may be the effect or the level left
Consider the following compounds; for each one, report its Activity.
Give bare numbers, in %.

Use the examples below as a reference point.
CC(C)=CCC/C(C)=C/CC/C(C)=C/CC(P(=O)(OCOC(=O)C(C)(C)C)OCOC(=O)C(C)(C)C)P(=O)(OCOC(=O)C(C)(C)C)OCOC(=O)C(C)(C)C; 96
CC(C)=CCC/C(C)=C/CC(CC=C(C)C)(P(=O)(O)O)P(=O)(O)O; 38

// each listed compound needs a value for Activity
1. CC(C)=CCC/C(C)=C/CC/C(C)=C/CC(P(=O)(O)O)P(=O)(O)O
2. CC(C)=CCC/C(C)=C/CC(CC=C(C)C)(P(=O)(OCOC(=O)C(C)(C)C)OCOC(=O)C(C)(C)C)P(=O)(OCOC(=O)C(C)(C)C)OCOC(=O)C(C)(C)C
3. CC(C)=CCC/C(C)=C/CC(C/C=C(\C)CCC=C(C)C)(P(=O)(OCOC(=O)C(C)(C)C)OCOC(=O)C(C)(C)C)P(=O)(OCOC(=O)C(C)(C)C)OCOC(=O)C(C)(C)C

// result
42
101
96

----------
Molecular target: Farnesyl pyrophosphate synthase (Homo sapiens, UniProt P14324)
Sequence (P14324 whole entry): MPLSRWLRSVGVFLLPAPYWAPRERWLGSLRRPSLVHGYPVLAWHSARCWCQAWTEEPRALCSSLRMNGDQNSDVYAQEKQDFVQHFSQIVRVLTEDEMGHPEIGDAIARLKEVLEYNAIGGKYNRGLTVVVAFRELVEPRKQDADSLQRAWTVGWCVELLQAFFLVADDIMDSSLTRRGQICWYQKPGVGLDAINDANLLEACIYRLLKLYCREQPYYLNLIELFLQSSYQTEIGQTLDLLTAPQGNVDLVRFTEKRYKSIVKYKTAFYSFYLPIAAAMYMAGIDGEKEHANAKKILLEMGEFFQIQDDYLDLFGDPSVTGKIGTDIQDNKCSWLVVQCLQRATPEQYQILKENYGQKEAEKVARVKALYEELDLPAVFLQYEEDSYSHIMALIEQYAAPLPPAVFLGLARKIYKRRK
Assay: Inhibition of human recombinant FDPS expressed in BL21 gold bacteria
ENDPOINT_LABEL: pIC50
Give bare numbers, as −log10 of the molar value.

With Farnesyl pyrophosphate synthase (Homo sapiens, UniProt P14324) as the test system, CC(C)=CCC/C(C)=C/CC(P(=O)(O)O)P(=O)(O)O showed pIC50 of 4.70
